Value source: the supplement of paper PMC8728848

Target: Gal3S(b1-4)Glc6S
Experiment: glycan array binding signal (z-score within array); higher = stronger binding
Details: glycan notation: IUPAC condensed, linker removed
About 410 targets per protein were measured; listed, in parts, are those with the strongest signals and a random draw of the rest.
Binary call on glycan array binding signal (z-score): Satisfied from 0.7 upward, Not satisfied beneath that.

1) Mg3lysM (Mycosphaerella graminicola) (protein) APQNPPTSCSAAPQPTGTGSPGTVCGSTTFTNYTVKAGDTLGAIAKQYNSGVCDIAKVNGIDNPDYIKPDQVLSIPANCVTPDNTSCVKPVPVITNTCVLGVGSTYTVKSGDSFSAIATSFNITLASLEARNPQIPNYDLIFPGQVINTPLCPNSVCDSIGTYVIESGDIFYNLAQSNNVTVGQLESLNVNVNVTDIHPGDIIILPHNCHNITASA: Not satisfied
2) 3FTT (Staphylococcus aureus), Q5HCZ5 (protein) MTEKEKMLAEKWYDANFDQYLINERARAKDICFELNHTRPSATNKRKELIDQLFQTTTDNVSISIPFDTDYGWNVKLGKNVYVNTNCYFMDGGQITIGDNVFIGPNCGFYTATHPLNFHHRNEGFEKAGPIHIGSNTWFGGHVAVLPGVTIGEGSVIGAGSVVTKDIPPHSLAVGNPCKVVRKIDNDLPSETLNDETIK: Satisfied
3) AcfC (Vibrio cholerae), Q57410 (protein) MKSKNRFLLISLLSFSTSVFADVNLYGPGGPHVPLIKVAESFEKSQSKRVNITFGPQATWNDKAKKNADILFGASEHSALAIAEGHSERFSKFNIHPVFMREAIILVKKGNPKNIKGMADLLKPGIGIVVNDGAGVSNTSGTAVWEDSVGRMKNVEKLQAFRSNIHVFAPNSGSARKAFVDGEDIDAWITWVDWAIANPTIGDMVRMEDEYRIYRDFNVVLAKNPSSEAIDFFDYLTKSKDAEAIFQHYGWFK: Not satisfied
4) Clone646PsrP (Streptococcus pneumoniae) (protein) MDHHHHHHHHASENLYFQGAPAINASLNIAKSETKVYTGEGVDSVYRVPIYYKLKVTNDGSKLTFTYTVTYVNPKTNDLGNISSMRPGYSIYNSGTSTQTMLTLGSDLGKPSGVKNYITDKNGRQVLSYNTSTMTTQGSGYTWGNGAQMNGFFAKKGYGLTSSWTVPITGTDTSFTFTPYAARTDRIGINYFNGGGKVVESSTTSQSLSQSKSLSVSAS: Satisfied
5) PEB3 Cj0289c (Campylobacter jejuni), Q9PIK7 (protein) MDVNLYGPGGPHTALKDIANKYSEKTGVKVNVNFGPQATWFEKAKKDADILFGASDQSALAIASDFGKDFNVSKIKPLYFREAIILTQKGNPLKIKGLKDLANKKVRIVVPEGAGKSNTSGTGVWEDMIGRTQDIKTIQNFRNNIVAFVPNSGSARKLFAQDQADAWITWIDWSKSNPDIGTAVAIEKDLVVYRTFNVIAKEGASKETQDFIAYLSSKEAKEIFKKYGWRE: Satisfied
6) CBM32-1 (Clostridium perfringens) (protein) MGSSHHHHHHSSGLVPRGSHMASGVEITEGVTVTAKGNTEGNTADLAIDGDLSTYWESSNDYKWIEVDLGGIYELSKIEIFNKDEAVYKYNIYASEDGENFNKIAYKNNDNVSDSNGNVHTIDNVRAGKIRIDVVQNSNSDRVNIAEINVFG: Satisfied
7) EcCDA (Encephalitazoon cuniculi), Q8SU65 (protein) MLLCLLYFTSSWCSGSDVPDVCTNSGMIAINFVDGPVRGVTDRILNTLDELGVKATFSFTVNQKAVGNVGQLYRRAVEEGHNVALRVDPSMDEGYQCLSQDALENNVDREIDTIDGLSGTEIRYAAVPICNGQVNSEMYNILTERGVLPVGYTFCPYDYDDPVGEFESMIEGSDPKHHSFIILMHDGQEADTSRLENMVKIGKDKGYRFVNMDECLQGYKGAPGDPELSLRGKGVESIGKGFLPFFLMMLVRLL: Satisfied
8) Epa11 (Candida glabrata) (protein) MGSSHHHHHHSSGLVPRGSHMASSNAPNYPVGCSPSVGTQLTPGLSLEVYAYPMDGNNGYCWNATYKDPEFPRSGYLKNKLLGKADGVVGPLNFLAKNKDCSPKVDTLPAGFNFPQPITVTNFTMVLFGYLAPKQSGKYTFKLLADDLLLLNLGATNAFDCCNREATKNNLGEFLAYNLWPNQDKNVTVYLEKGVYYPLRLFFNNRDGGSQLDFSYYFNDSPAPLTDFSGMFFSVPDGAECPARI: Not satisfied
9) Als3-41 (Candida albicans) (protein) KTITGVFNSFNSLTWSNAATYNYKGPGTPTWNAVLGWSLDGTSASPGDTFTLNMPCVFKFTTSQTSVDLTAHGVKYATCQFQAGEEFMTFSTLTCTVSNTLTPSIKALGTVTLPLAFNVGGTGSSVDLEDSKCFTAGTNTVTFNDGGKKISINVDFERSNVDPKGYLTDSRVIPSLNKVSTLFVAPQCANGYTSGTMGFANTYGDVQIDCSNIHVGITKGLNDWNYPVSSESFSYTKTCSSNGIFITYKNVPAGYRPFVDAYISATDVNSYTLSYANEYTCAGGYWQRAPFTLRWTGYRNSDAGSNGIVIVATTRTVTDSTTAVTTLPFDPNRDKTKTIEILKPIPTTTITTSYVGVTTSYLTKTAPIGETATVIVD: Not satisfied
10) FimA-N1 (Actinomyces oris) (protein) MHHHHHHSSGVDLGTENLYFQSNATETPNYGNIKTDATGSLVIHKHLTGGGKDIGTPTGTAQNADDKGPAVEGVVFTAYPITDINLKDPAGWDTISNLSRTGVPDSACANPAAPTLGAHQFGTPKVSPATTKEGLATITEMPVQAYLVCETTTPGDIVQKAKPFVVTIPHPNTAAGADGQWIYDVNVYPKNEAIDVDKTIQAQK: Satisfied

Proceed to the following item.
Query: Would you say LKITALY (Gibberella zeae) (protein) MGNFHESSNNIWLEDGHILHAECGNGEGDYVESTLDLDYYIGNDDGSFSWGGENFSGSASNITLDIEGDDNIPVLRAELNPMDGDPVEANVNLSERIGNDCGTLIFLA shows glycan array binding signal (z-score) at minimum 0.7?
Reply: Satisfied
